Hello, the source for this data is patent US20140228286A1, in case you need it.

molecular target: PDE4B (Homo sapiens, UniProt Q07343); construct: active site fragment comprising the amino acids 152-484; assay: PDE4B Scintillation Proximity (SPA) Assay; conditions: PDE4B active site fragment amino acids 152-484; [3H]cAMP; 30° C., one hour; read-out: Experimentally determined IC50-value for PDE4B inhibition
Sequence (Q07343 324-656): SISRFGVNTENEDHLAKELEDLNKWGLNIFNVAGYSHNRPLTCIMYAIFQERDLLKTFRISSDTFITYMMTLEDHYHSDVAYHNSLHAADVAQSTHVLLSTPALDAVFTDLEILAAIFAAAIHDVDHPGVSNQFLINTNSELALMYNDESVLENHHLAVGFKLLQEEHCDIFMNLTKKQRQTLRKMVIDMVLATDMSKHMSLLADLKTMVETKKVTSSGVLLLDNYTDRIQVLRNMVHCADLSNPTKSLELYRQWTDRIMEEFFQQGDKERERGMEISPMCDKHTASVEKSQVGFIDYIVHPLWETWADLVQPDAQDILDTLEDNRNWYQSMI
pIC50: −log10 of the molar value.
Would you mind labelling by pIC50? At or over 8 is 1, under is -1.

CCc1[nH]c2ccc(F)cc2c1C1CCN(c2nc3c(c(Nc4cccc(F)c4)n2)[S+]([O-])CC3)CC1 (stereo not shown) ... -1
CN1C[C@@H](Nc2nc(N3CCC(c4nc(-c5ccccc5)c(-c5ccccc5)o4)CC3)nc3c2[S+]([O-])CC3)CCC1=O (stereo partly shown) ... 1
Cn1c(C2CCN(c3nc4c(c(NC5CCOCC5)n3)[S+]([O-])CC4)CC2)nc2cnccc21 (stereo not shown) ... -1

-- ask Determine whether this compound has pIC50 no lower than 8: CN1C[C@@H](Nc2nc(N3CCC(Oc4ccc(F)cc4)CC3)nc3c2[S+]([O-])CC3)CCC1=O (stereo partly shown)
-- reply 1

-- ask Determine whether this compound has pIC50 no lower than 8: Cn1cc(C2CCN(c3nc4c(c(NC5CCOCC5)n3)[S+]([O-])CC4)CC2)c2cc(C(C)(C)C)ccc21 (stereo not shown)
-- reply -1

-- ask Determine whether this compound has pIC50 no lower than 8: [O-][S+]1CCc2nc(N3CCC(c4ccc(Cl)cc4)CC3)nc(NC3CCOCC3)c21 (stereo not shown)
-- reply 1
